B1: library; a variant is named by its letters at N, in order (parent)
chain: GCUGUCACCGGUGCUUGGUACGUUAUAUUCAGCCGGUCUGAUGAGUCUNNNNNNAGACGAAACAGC

Variants of: B1
ASSAY COMMENT: normalized RNA/DNA level without ligand (relative to sTRSVctl = 100) (log10 (% of sTRSVctl)); HEK293T overexpressing SLC46A1; higher = less ribozyme self-cleavage, higher mRNA level
EXPERIMENTAL PARAMETERS: without (6R,S)-folinic acid; ligand present: no
We begin with a simple list: items and their reported normalized RNA/DNA level without ligand (log10).

Example entries begin here.
[
  {
    "VAR": "CCAGCA",
    "EXPERIMENTAL RESULT": 2.01
  },
  {
    "VAR": "CGACCG",
    "EXPERIMENTAL RESULT": 1.99
  },
  {
    "VAR": "UUGACG",
    "EXPERIMENTAL RESULT": 1.87
  },
  {
    "VAR": "GCAGAG",
    "EXPERIMENTAL RESULT": 1.81
  },
  {
    "VAR": "GCCCGA",
    "EXPERIMENTAL RESULT": 2.03
  },
  {
    "VAR": "GUUUUG",
    "EXPERIMENTAL RESULT": 2.01
  },
  {
    "VAR": "UAAUCU",
    "EXPERIMENTAL RESULT": 2.02
  },
  {
    "VAR": "GAUCCG",
    "EXPERIMENTAL RESULT": 2.06
  }
]

Supply measured normalized RNA/DNA level without ligand (log10) of `UACACA` in your reply.
1.97

Return normalized RNA/DNA level without ligand (log10) for the following variant: `GUUUGG`
1.98

Output measured normalized RNA/DNA level without ligand (log10) for this item: `UCGCCG`
2.02

Specify normalized RNA/DNA level without ligand (log10) for `AGCUGA` and stop.
2.05

For the variant `UAGCCU` , report normalized RNA/DNA level without ligand (log10).
2.02

Please indicate normalized RNA/DNA level without ligand (log10) recorded for `ACAGAU`
1.95

Please list normalized RNA/DNA level without ligand (log10) recorded for the variant `UAGUAU`
1.93

Retrieve normalized RNA/DNA level without ligand (log10) measured for `UUCUAA` and print it.
2.01

The reported numbers originate from the supplement of paper PMC6757056.
